- Tested on: U2OS
- assayDetails: Multiplex assay against U2OS
- Type: toxicity, cell-based
- runParameters: human, 48 h, 10 µM, compound concentration 10 uM, replicate 2
Assign Population Apoptotic (%) to each entry below.
Numbers only, in %.

Recorded Population Apoptotic (%), per entry:
> print(dat)
                                   compound  studysystem  observedvalue
1  Oc1cccc(-c2nc(N3CCOCC3)c3oc4ncccc4c3n2)c1         U2OS             68
2  Cc1c(P(=S)(c2ccccc2)c2ccccc2)n2ccccc2[n+]1C/C=C/c1ccccc1.[Br-]         U2OS            100
3  CCCc1cc(C)[nH]c(=O)c1CNC(=O)c1cc(-c2ccc(N3CCN(C(C)C)CC3)nc2)cc2c1cnn2C(C)C         U2OS            100
4  CC(C)c1cc(Nc2nc(N3CCC[C@H](N)C3)ncc2C(N)=O)cc(C(C)C)n1         U2OS             95

Parameter requested: Population Apoptotic (%). Apply to each item below.
1. CN1C(=O)[C@@H](NC(=O)c2cc3ccccc3[nH]2)N=C(c2ccccc2)c2ccccc21 [DEVAZEPIDE]
2. C[C@@H](Oc1cc(-n2cnc3ccc(CN4CCN(C)CC4)cc32)sc1C(N)=O)c1ccccc1C(F)(F)F
3. Cc1c(Nc2ccc(S(=O)(=O)N3CCN(C)CC3)cc2F)nc2ccc(-c3cnn(C4CC4)c3)cn2c1=O
4. N#CCNC(=O)c1ccc(-c2ccnc(Nc3ccc(N4CCOCC4)cc3)n2)cc1
5. CCCCN(CC)c1nc(C)nc2c1c(C)cn2-c1c(C)cc(C)cc1C.Cl
6. CC(/C=C1\SC(=S)N(CCCC(=O)Nc2ccc(C(=O)O)c(O)c2)C1=O)=C\c1ccccc1
7. C=CC(=O)Nc1cc(-n2c(=O)ccc3cnc4ccc(-c5ccc(NS(C)(=O)=O)cc5)cc4c32)ccc1C
8. CC(C)[C@H](CO)Nc1nc(Nc2cccc(Cl)c2)c2ncn(C(C)C)c2n1

[92, 82, 71, 53, 38, 16, 95, 100]

Here are 2 compounds. What values of Population Apoptotic (%) were reported for them?
1. CN(c1cc(C(F)(F)F)nc(OCCC(=O)O)n1)c1cccc2c1CCC2
2. c1ccc(-c2oc3ncnc(NC[C@@H]4CCCO4)c3c2-c2ccccc2)cc1

1. 20
2. 77

Below are 3 compounds. Give each one its Population Apoptotic (%).
1. Cc1ccc(S(=O)(=O)NC2c3ccccc3Oc3ccccc32)cc1
2. CC(Cc1ccc(O)c(O)c1)C(C)Cc1ccc(O)c(O)c1 (centres undefined) [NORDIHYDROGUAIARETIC ACID]
3. CCCCCNC(=N)N/N=C/c1c[nH]c2ccc(OC)cc12.O=C(O)/C=C\C(=O)O [TEGASEROD MALEATE]

1. 75
2. 66
3. 100

Hey, can you go through the list below and give me Population Apoptotic (%) for every item?
1. Cl.NC[C@@H]1O[C@H](C23CC4CC(CC(C4)C2)C3)Cc2c1ccc(O)c2O
2. N#Cc1cccc(C(=O)Nc2cc(-c3ccccc3)nn2-c2ccccc2)c1

91
55

----------
- Tested on: U2OS
- assayDetails: Multiplex assay against U2OS
- Format: toxicity, cell-based
- runParameters: human, 48 h, 1 µM, compound concentration 1 uM, replicate 1
Hi! Just check whether Population Apoptotic (%) is below 50%. Below gives YES, equal or above gives NO.

> print(dat)
                                   compound  categorylabel
1  CCCCN(CC)c1nc(C)nc2c1c(C)cn2-c1c(C)cc(C)cc1C.Cl            YES
2  N#Cc1cccc(C(=O)Nc2cc(-c3ccccc3)nn2-c2ccccc2)c1            YES
3  CCCCCNC(=N)N/N=C/c1c[nH]c2ccc(OC)cc12.O=C(O)/C=C\C(=O)O [TEGASEROD MALEATE]            YES
4  Oc1cccc(-c2nc(N3CCOCC3)c3oc4ncccc4c3n2)c1 [PI-103]             NO
5  C[C@@H](Oc1cc(-n2cnc3ccc(CN4CCN(C)CC4)cc32)sc1C(N)=O)c1ccccc1C(F)(F)F [GSK-461364]             NO
6  CC(C)c1cc(Nc2nc(N3CCC[C@H](N)C3)ncc2C(N)=O)cc(C(C)C)n1             NO

In plain terms, does CN1C(=O)[C@@H](NC(=O)c2cc3ccccc3[nH]2)N=C(c2ccccc2)c2ccccc21 [DEVAZEPIDE] come in under 50% for Population Apoptotic (%)?
YES

Is 50% strictly greater than the compound's reported Population Apoptotic (%)? compound: `CCCc1cc(C)[nH]c(=O)c1CNC(=O)c1cc(-c2ccc(N3CCN(C(C)C)CC3)nc2)cc2c1cnn2C(C)C`
NO

All values here come from ChEMBL document CHEMBL4689842.
